Test system: FXR-UAS-bla HEK293T cells
Experiment: Cell viability assay (CellTiter Glo) in the same well as FXR-bla
Details: Table S1, primary screening

[
  {
    "Compound": "Cc1c(COC(=O)[C@@H]2[C@H](/C=C(\\Cl)C(F)(F)F)C2(C)C)cccc1-c1ccccc1 (racemic)",
    "Cytotoxicity IC50": "Inactive"
  },
  {
    "Compound": "CC(C)=CC1C(C(=O)OCc2cccc(Oc3ccccc3)c2)C1(C)C (stereo not drawn)",
    "Cytotoxicity IC50": "Inactive"
  },
  {
    "Compound": "COC(=O)Nc1nc2ccccc2[nH]1",
    "Cytotoxicity IC50": "Inactive"
  }
]
